# PROTOCOL_DESCRIPTION: Toxicity in human erythrocytes assessed as hemolysis at 24 uM after 40 mins
# Format: cell-based, Erythrocyte
# PROTOCOL_CONDITIONS: read-out: Activity
Where a SMILES comes first, the peptide text is derived from it.
Please use T for hemolysis at 40 min, 24 µM under 90% and F for everything else, ties included.

Illustrative cases are given below, each with its answer.
INSERT INTO measurements (compound, discrete_label) VALUES
  ('CC[C@@H](C)[C@@H](NC(=O)[C@H](N)CC(C)C)C(=O)N[C@H](CCCNC(=N)N)C(=O)NCC(=O)N[C@H](CC(C)C)C(=O)N[C@H](Cc1ccccc1)C(=O)N[C@H](CCCCN)C(=O)N[C@H](CO)C(=O)N[C@H](Cc1ccccc1)C(=O)N[C@H](Cc1c[nH]c2ccccc12)C(=O)N[C@H](CCC(N)=O)C(=O)N[C@@H](C(=O)N[C@H](Cc1ccccc1)C(N)=O)C(C)C', 'T'),
  ('CC[C@H](C)[C@H](NC(=O)[C@H](CCCNC(=N)N)NC(=O)[C@@H]1CCCN1C(=O)[C@H](CC(C)C)NC(=O)[C@H](Cc1ccccc1)NC(=O)[C@H](CCCCN)NC(=O)[C@H](CO)NC(=O)[C@H](Cc1ccccc1)NC(=O)[C@H](Cc1c[nH]c2ccccc12)NC(=O)[C@@H]1CCCN1C(=O)[C@@H](NC(=O)[C@@H](N)Cc1ccccc1)C(C)C)C(=O)N[C@@H](CC(C)C)C(N)=O', 'T'),
  ('CC[C@H](C)[C@H](NC(=O)[C@H](CCCNC(=N)N)NC(=O)CNC(=O)[C@H](CC(C)C)NC(=O)[C@H](Cc1ccccc1)NC(=O)[C@H](CCCCN)NC(=O)[C@H](CO)NC(=O)[C@H](Cc1ccccc1)NC(=O)[C@H](Cc1c[nH]c2ccccc12)NC(=O)[C@@H]1CCCN1C(=O)[C@H](CC(C)C)NC(=O)[C@@H](N)Cc1ccccc1)C(=O)N[C@@H](CC(C)C)C(N)=O (H-FLPWFSKFLGRIL-NH2)', 'F'),
  ('CC(C)C[C@H](NC(=O)[C@H](CC(C)C)NC(=O)[C@H](CCCNC(=N)N)NC(=O)CNC(=O)[C@H](CC(C)C)NC(=O)[C@H](CC(C)C)NC(=O)[C@H](CCCCN)NC(=O)[C@H](CO)NC(=O)[C@H](CC(C)C)NC(=O)[C@H](Cc1c[nH]c2ccccc12)NC(=O)[C@H](CCC(N)=O)NC(=O)[C@H](CC(C)C)NC(=O)[C@@H](N)CC(C)C)C(N)=O (H-LLQWLSKLLGRLL-NH2)', 'F');

Please look at the following compound next.
Please indicate whether the reported hemolysis at 40 min, 24 µM of CC[C@H](C)[C@H](NC(=O)[C@H](CCCNC(=N)N)NC(=O)CNC(=O)[C@H](CC(C)C)NC(=O)[C@H](Cc1ccccc1)NC(=O)[C@H](CCCNC(=N)N)NC(=O)[C@H](CO)NC(=O)[C@H](Cc1ccccc1)NC(=O)[C@H](Cc1c[nH]c2ccccc12)NC(=O)[C@H](CCC(N)=O)NC(=O)[C@@H](NC(=O)[C@@H](N)Cc1ccccc1)C(C)C)C(=O)N[C@@H](CC(C)C)C(N)=O (H-FVQWFSRFLGRIL-NH2) is strictly below 90%.
F
